Can you tell me IC50 for the items I'm about to list?
Subject of test: full-length SARM1 (FL-SARM1) (Homo sapiens, UniProt Q6SZW1)
Assay: FL-SARM1 cellular lysate assay (NAD/NADH-Glo detection of remaining NAD+, NMN-activated)
Experimental conditions: Activity (μM) (IC50), 11 point curve
Answers are plain numbers, in µM.

A selection of reference data follows.
Compound | Endpoint unit | Measured number
Cc1ccc(NC(=O)N2[C@@H]3C[C@@H](C)C[C@H]2C3)cc1-c1cncc(C(F)(F)F)n1 | µM | 0.09
Cc1ccc(NC(=O)N2C[C@@H]3CCCC[C@@H]32)cc1-c1ncc(F)cn1 (racemic) | µM | 1.5
Cc1ccc(NC(=O)C(C)(C)C2CCC2)cc1-c1cccnn1 | µM | 4.3

Batch lookup, IC50 per entry.
1. Cc1ccc(NC(=O)[C@H]2[C@H](C)OCCN2c2ccccn2)cc1-c1ncc(F)cn1
2. CC(C)c1ccc(NC(=O)[C@@H]2CC2(F)F)cc1-c1ccccn1
3. O=C(Nc1ccc(C(F)(F)F)c(-c2ccc(F)cn2)c1)[C@@H]1CC1(F)F

## Result
1. 9.5
2. 4.2
3. 3.5

Batch lookup, IC50 per entry.
1. Cc1ccc(NC(=O)N2CCC[C@H]2c2ccccc2)cc1-c1ccccn1
2. Cc1ccc(NC(=O)N2C3CCCC2C3)cc1-c1ncccc1C1CC1
3. Cc1ccc(NC(=O)[C@@H]2CC2(F)F)cc1-c1ccc(C2CC2)cn1

## Result
[0.7, 6.1, 17]

###

Subject of test: full-length SARM1 (FL-SARM1) (Homo sapiens, UniProt Q6SZW1)
Sequence (Q6SZW1 28-724): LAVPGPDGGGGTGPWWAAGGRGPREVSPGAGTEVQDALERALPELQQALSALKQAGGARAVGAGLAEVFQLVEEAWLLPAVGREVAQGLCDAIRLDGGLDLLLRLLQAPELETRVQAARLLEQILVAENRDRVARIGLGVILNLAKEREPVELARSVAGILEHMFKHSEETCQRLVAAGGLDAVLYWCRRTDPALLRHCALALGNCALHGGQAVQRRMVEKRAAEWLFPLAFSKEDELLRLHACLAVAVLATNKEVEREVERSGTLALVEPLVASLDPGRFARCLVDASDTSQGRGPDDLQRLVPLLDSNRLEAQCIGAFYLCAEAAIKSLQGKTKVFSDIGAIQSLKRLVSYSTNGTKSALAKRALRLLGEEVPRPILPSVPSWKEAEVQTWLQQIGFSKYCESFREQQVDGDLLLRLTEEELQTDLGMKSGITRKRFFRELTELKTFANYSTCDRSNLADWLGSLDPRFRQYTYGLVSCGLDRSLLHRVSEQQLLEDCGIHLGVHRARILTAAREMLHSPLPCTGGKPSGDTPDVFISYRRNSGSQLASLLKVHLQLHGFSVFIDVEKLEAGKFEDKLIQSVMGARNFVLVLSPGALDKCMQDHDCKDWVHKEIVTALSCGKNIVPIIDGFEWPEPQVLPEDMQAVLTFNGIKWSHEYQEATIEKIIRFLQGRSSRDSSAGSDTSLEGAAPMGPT
Assay: FL-SARM1 cellular lysate assay (NAD/NADH-Glo detection of remaining NAD+, NMN-activated)
Experimental conditions: Activity (μM) (IC50), 11 point curve
Measure: IC50

A selection of reference data follows.
Molecule | IC50
Cc1ccc(NC(=O)C2CCC[C@@H](C)N2c2ccccn2)cc1-c1ncc(F)cn1 (mixture of isomers) [Example 258] | 2.4 µM
Cc1ccc(NC(=O)[C@H]2CC[C@H](C)N2c2ccccn2)cc1-c1ncc(F)cn1 [Example 281] | 1.3 µM

Read the next record carefully.
## Task If you can, please state the reported IC50 value of Cc1ccc(NC(=O)[C@@H]2CN(CC(F)(F)F)C[C@H]2c2ccccn2)cc1-c1ncc(F)cn1 (racemic) [Example 280] .
## Result 28 µM

###

Subject of test: full-length SARM1 (FL-SARM1) (Homo sapiens)
Assay: FL-SARM1 cellular lysate assay (NAD/NADH-Glo detection of remaining NAD+, NMN-activated)
Experimental conditions: Activity (μM) (IC50), 11 point curve
Measure: IC50 (µM)
Numbers only, in µM.

Compound | Endpoint unit | Measured number
Cc1ccc(NC(=O)CC2CCC2)cc1-c1cccnn1 | µM | 11
Cc1cc(C)c(-c2ccccn2)cc1NC(=O)N1C2CCCC1C2 | µM | 6.8
Cc1ccc(NC(=O)[C@H]2CC[C@@H](C)N2c2ccc(F)cn2)cc1-c1ncc(F)cn1 | µM | 1.7
Cc1ccc(NC(=O)N2C3C[C@@H](C)C[C@H]2C3)cc1-c1cncc(Cl)n1 | µM | 0.04

Batch lookup, IC50 per entry.
1. Cc1cc(F)c(NC(=O)N2C3C[C@@H](C4CC4)C[C@H]2C3)cc1-c1cccnn1
2. Cc1ccc(NC(=O)N2CC3CC2Cc2ccccc23)cc1-c1ccccn1 (stereo not drawn)
3. Cc1ccc(NC(=O)[C@H]2C[C@H](C3CC3)C2)cc1-c1ccccn1 (single isomer, unassigned)
4. O=C(Nc1ccc(Cl)c(-c2ccc(F)cn2)c1)N1C2CCCC1C2
5. Cc1ccc(NC(=O)[C@H]2C[C@@H]2c2ccccc2)cc1-c1ncc(F)cn1 (racemic)
6. CC[C@H]1C[C@H]1C(=O)Nc1ccc(C)c(-c2ccccn2)c1 (single isomer, unassigned) [Example 110]
7. Cc1ccc(NC(=O)C2CCc3cccnc32)cc1-c1ncc(F)cn1 (racemic)
8. Cc1ccc(NC(=O)[C@H]2C[C@H]3C[C@H]3N2c2cncnn2)cc1-c1ncc(F)cn1

## Result
[0.09, 2.5, 0.9, 0.2, 30, 6, 17, 4.2]

###

Subject of test: full-length SARM1 (FL-SARM1) (Homo sapiens)
Sequence (Q6SZW1 28-724): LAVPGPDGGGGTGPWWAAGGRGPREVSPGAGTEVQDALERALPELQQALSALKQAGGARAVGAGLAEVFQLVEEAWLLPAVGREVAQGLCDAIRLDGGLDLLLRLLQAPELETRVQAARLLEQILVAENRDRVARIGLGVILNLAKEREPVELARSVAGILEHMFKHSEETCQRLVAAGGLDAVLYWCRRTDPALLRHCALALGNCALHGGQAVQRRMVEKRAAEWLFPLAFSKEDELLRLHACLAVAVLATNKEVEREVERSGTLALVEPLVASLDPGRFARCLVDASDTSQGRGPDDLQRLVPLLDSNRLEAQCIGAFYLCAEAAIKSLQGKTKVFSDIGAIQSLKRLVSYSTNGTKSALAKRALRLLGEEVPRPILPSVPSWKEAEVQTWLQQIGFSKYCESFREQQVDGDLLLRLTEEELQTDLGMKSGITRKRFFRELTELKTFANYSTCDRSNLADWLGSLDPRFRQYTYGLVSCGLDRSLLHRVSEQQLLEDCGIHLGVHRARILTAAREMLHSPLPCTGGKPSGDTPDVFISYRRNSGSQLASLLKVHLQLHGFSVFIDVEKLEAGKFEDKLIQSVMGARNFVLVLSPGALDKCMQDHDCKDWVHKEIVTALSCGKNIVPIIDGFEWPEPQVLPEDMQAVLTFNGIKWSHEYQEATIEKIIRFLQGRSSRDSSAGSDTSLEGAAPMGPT
Assay: FL-SARM1 cellular lysate assay (NAD/NADH-Glo detection of remaining NAD+, NMN-activated)
Experimental conditions: Activity (μM) (IC50), 11 point curve
# label = 1 if IC50 < 2 µM else 0

Molecule | Subject of test | Label
Cc1ccc(NC(=O)OCC2CC2)cc1-c1ncccn1 | full-length SARM1 (FL-SARM1) (Homo sapiens) | 0
Cc1ccc(NC(=O)N2C3C[C@@H](C)C[C@H]2C3)cc1-c1nncc(C(F)(F)F)n1 | full-length SARM1 (FL-SARM1) (Homo sapiens) | 1
Cc1cc(F)c(NC(=O)N2C3CCCC2C3)cc1-c1ncncn1 | full-length SARM1 (FL-SARM1) (Homo sapiens) | 0

## Task Decide: IC50 of Cc1ccc(NC(=O)C2CC3(CC3)C2)cc1-c1ccccn1 strictly below 2 µM?
## Result 1

## Task Moving on to COc1ccnc(-c2cc(NC(=O)N3C4CCCC3C4)ccc2C)n1
## Result 0

## Task Moving on to Cc1ccnc(-c2cc(NC(=O)[C@@H]3CC3(F)F)ccc2C)c1
## Result 0

## Task Moving on to Cc1ccc(NC(=O)[C@H]2C[C@@H](C(F)(F)F)CN2c2ncn(C)n2)cc1-c1ncc(F)cn1
## Result 0

## Task Moving on to Cc1ccc(NC(=O)N2C3C[C@@H](C)C[C@H]2C3)cc1-c1nccnn1
## Result 1

## Task Moving on to CC1(c2ccc(NC(=O)[C@@H]3CC3(F)F)cc2-c2ccccn2)CC1
## Result 0

###

Subject of test: full-length SARM1 (FL-SARM1) (Homo sapiens)
Assay: FL-SARM1 cellular lysate assay (NAD/NADH-Glo detection of remaining NAD+, NMN-activated)
Experimental conditions: Activity (μM) (IC50), 11 point curve
# label = bin(measured IC50), where bins are LOW (below 1 µM), MID (1 µM to below 9 µM), HIGH (9 µM or more)

Take a look at these entries with their results.
Molecule | Label
Cc1ccc(NC(=O)[C@H]2C3CC(F)(F)C[C@H]32)cc1-c1cccnn1 (stereo partly drawn) | HIGH
Cc1ccc(NC(=O)C2CC3CC[C@H]2C3)cc1-c1ccccn1 (single isomer, unassigned) [Example 137] | LOW
CO[C@@H]1CCCN(C(=O)Nc2ccc(C(F)(F)F)c(-c3ncc(F)cn3)c2)CC1 | HIGH

## Task Could you place Cc1ccc(NC(=O)[C@H]2C[C@@H]3[C@H](C2)C3(F)F)cc1-c1cccnn1 in its proper category? Many thanks.
## Result HIGH

## Task Moving on to COCCOCc1ccnc(-c2cc(NC(=O)N3[C@@H]4C[C@@H](C)C[C@H]3C4)ccc2C)n1
## Result MID
